B1: POU domain, class 3, transcription factor 3, residues 320 to 388; numbered along this chain, P20264 (parent)
chain: DDLEQFAKQFKQRRIKLGFTQADVGLALGTLYGNVFSQTTICRFEALQLSFKNMCKLKPLLNKWLEEAD

# Variants of: B1
# Assay Method Text: abundance fitness (aPCA) (normalised: wild type 0, dead -1); higher = more abundant; growth selection in yeast, the domain comes from the species named
# Condition Set: Homo sapiens
Property Label: abundance fitness

[
  {
    "Sequence Code": "DDLEQFAKQFKQRRIKLGFTQADVGLALGTLYGNVFTQTTICRFEALQLSFKNMCKLKPLLNKWLEEAD [S37T]",
    "Property Label": "abundance fitness",
    "Reported Result": -0.337
  },
  {
    "Sequence Code": "DDLEQFAKQFKQRRIKLGFTQADVGLKLGTLYGNVFSQTTICRFEALQLSFKNMCKLKPLLNKWLEEAD [A27K]",
    "Property Label": "abundance fitness",
    "Reported Result": 0.021
  },
  {
    "Sequence Code": "DDLEQFAKQFKQRRIKLGFTQADVGLALGTLYGNVFSQTTIPRFEALQLSFKNMCKLKPLLNKWLEEAD [C42P]",
    "Property Label": "abundance fitness",
    "Reported Result": -0.276
  },
  {
    "Sequence Code": "DDLEQFAKQFKQRRIKLGFTQADVGLALGTLYGNVFSQTTIMRFEALQLSFKNMCKLKPLLNKWLEEAD [C42M]",
    "Property Label": "abundance fitness",
    "Reported Result": -0.284
  },
  {
    "Sequence Code": "DDLEQFAKQFKQRRIKLGFTQADVGLALGTLYINVFSQTTICRFEALQLSFKNMCKLKPLLNKWLEEAD [G33I]",
    "Property Label": "abundance fitness",
    "Reported Result": -0.7
  },
  {
    "Sequence Code": "DDLEQFAKQFKQRRIKLGFTQADVGLALGFLYGNVFSQTTICRFEALQLSFKNMCKLKPLLNKWLEEAD [T30F]",
    "Property Label": "abundance fitness",
    "Reported Result": -0.514
  },
  {
    "Sequence Code": "DDLEQFAKQFKQRRIKLGFTQADVGLALGTVYGNVFSQTTICRFEALQLSFKNMCKLKPLLNKWLEEAD [L31V]",
    "Property Label": "abundance fitness",
    "Reported Result": -0.195
  },
  {
    "Sequence Code": "DDLEQFAKQFKQRRIKLGFTQADVGLALGTLYGNVFSQTHICRFEALQLSFKNMCKLKPLLNKWLEEAD [T40H]",
    "Property Label": "abundance fitness",
    "Reported Result": -0.778
  },
  {
    "Sequence Code": "DDLEQFAKQFKQRRIKLGFTQADVGLILGTLYGNVFSQTTICRFEALQLSFKNMCKLKPLLNKWLEEAD [A27I]",
    "Property Label": "abundance fitness",
    "Reported Result": -0.711
  },
  {
    "Sequence Code": "DDLEQFAKQFKQRRIKLGFTQADVGLALGTLYGNVTSQTTICRFEALQLSFKNMCKLKPLLNKWLEEAD [F36T]",
    "Property Label": "abundance fitness",
    "Reported Result": 0.071
  },
  {
    "Sequence Code": "DDLEQFAKQFKQRRIKLGFTQADVGLALGTLYGNNFSQTTICRFEALQLSFKNMCKLKPLLNKWLEEAD [V35N]",
    "Property Label": "abundance fitness",
    "Reported Result": -0.601
  },
  {
    "Sequence Code": "DDLEQFAKQFKQRRIKLGFTQADVQLALGTLYGNVFSQTTICRFEALQLSFKNMCKLKPLLNKWLEEAD [G25Q]",
    "Property Label": "abundance fitness",
    "Reported Result": -0.682
  },
  {
    "Sequence Code": "DDLEQFAKQFKQRRIKLGFTQADVGLALFTLYGNVFSQTTICRFEALQLSFKNMCKLKPLLNKWLEEAD [G29F]",
    "Property Label": "abundance fitness",
    "Reported Result": -0.388
  },
  {
    "Sequence Code": "DDLEQFAKQFKQRRIKLGFTQAPVGLALGTLYGNVFSQTTICRFEALQLSFKNMCKLKPLLNKWLEEAD [D23P]",
    "Property Label": "abundance fitness",
    "Reported Result": -1.04
  },
  {
    "Sequence Code": "DDLEQFAKQFKQRRIKLGFTQADVGLALGTLYGNDFSQTTICRFEALQLSFKNMCKLKPLLNKWLEEAD [V35D]",
    "Property Label": "abundance fitness",
    "Reported Result": 0.091
  },
  {
    "Sequence Code": "DDLEQFAKQFKQRRIKLGFTQADDGLALGTLYGNVFSQTTICRFEALQLSFKNMCKLKPLLNKWLEEAD [V24D]",
    "Property Label": "abundance fitness",
    "Reported Result": -0.882
  },
  {
    "Sequence Code": "DDLEQFAKQFKQRRIKLGFTQADVGLALGTLYGNVFSDTTICRFEALQLSFKNMCKLKPLLNKWLEEAD [Q38D]",
    "Property Label": "abundance fitness",
    "Reported Result": -0.075
  },
  {
    "Sequence Code": "DDLEQFAKQFKQRRIKLGFTQADVGQALGTLYGNVFSQTTICRFEALQLSFKNMCKLKPLLNKWLEEAD [L26Q]",
    "Property Label": "abundance fitness",
    "Reported Result": 0.017
  },
  {
    "Sequence Code": "DDLEQFAKQFKQRRIKLGFTQADVGLALGTLYGNHFSQTTICRFEALQLSFKNMCKLKPLLNKWLEEAD [V35H]",
    "Property Label": "abundance fitness",
    "Reported Result": -0.152
  },
  {
    "Sequence Code": "DDLEQFAKQFKQRRIKLGFTQADVGLALGTLYGNVFSQTNICRFEALQLSFKNMCKLKPLLNKWLEEAD [T40N]",
    "Property Label": "abundance fitness",
    "Reported Result": -0.734
  },
  {
    "Sequence Code": "DDLEQFAKQFKQRRIKLGFTQADVGLALGTLYGNVFSQTTICQFEALQLSFKNMCKLKPLLNKWLEEAD [R43Q]",
    "Property Label": "abundance fitness",
    "Reported Result": -0.113
  },
  {
    "Sequence Code": "DDLEQFAKQFKQRRIKLGFTQADVGLALGVLYGNVFSQTTICRFEALQLSFKNMCKLKPLLNKWLEEAD [T30V]",
    "Property Label": "abundance fitness",
    "Reported Result": -0.034
  }
]
